Sourced from patent US20230147257A1

Reported inhibition at 0.123 µM values are given for each entry in this list.
study_target: AhR (Homo sapiens)
Construct: host or cells: HepG2
Sequence (P35869 11-848): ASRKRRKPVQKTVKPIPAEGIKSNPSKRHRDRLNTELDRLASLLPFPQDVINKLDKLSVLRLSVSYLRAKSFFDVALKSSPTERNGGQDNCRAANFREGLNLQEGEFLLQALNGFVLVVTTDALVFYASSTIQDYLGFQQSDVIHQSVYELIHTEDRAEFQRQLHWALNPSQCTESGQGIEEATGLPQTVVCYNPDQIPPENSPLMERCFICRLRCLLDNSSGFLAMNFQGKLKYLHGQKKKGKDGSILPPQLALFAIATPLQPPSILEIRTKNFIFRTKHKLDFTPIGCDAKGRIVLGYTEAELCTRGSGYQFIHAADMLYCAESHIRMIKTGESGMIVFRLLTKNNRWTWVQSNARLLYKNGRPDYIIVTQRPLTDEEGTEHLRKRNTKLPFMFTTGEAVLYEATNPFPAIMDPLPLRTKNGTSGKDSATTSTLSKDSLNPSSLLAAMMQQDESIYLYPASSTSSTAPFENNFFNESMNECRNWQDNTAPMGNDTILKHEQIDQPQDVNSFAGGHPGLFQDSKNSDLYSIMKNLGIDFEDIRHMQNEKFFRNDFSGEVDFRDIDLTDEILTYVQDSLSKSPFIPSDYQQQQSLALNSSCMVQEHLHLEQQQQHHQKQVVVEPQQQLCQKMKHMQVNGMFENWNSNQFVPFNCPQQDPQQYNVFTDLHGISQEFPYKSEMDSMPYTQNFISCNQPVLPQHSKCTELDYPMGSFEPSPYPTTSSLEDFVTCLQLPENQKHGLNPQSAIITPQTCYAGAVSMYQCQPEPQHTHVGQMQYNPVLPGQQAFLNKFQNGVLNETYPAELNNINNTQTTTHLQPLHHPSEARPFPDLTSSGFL
protocol_summary: In vitro assay 4: endogenous AhR activity assay (CYP1A1 and CYP1B1 mRNA, qRT-PCR, HepG2 cells)
Assay type: cell-based
assay_context: TCDD 10 nM with compound 123 nM, 4 hours, mRNA relative to β-actin, read-out: CYP1B1 (% Inhibition)
observed_property: inhibition at 0.123 µM (%)

# molecule, output_unit, numeric_value
data = [
    ("CC(CO)n1cnc2c(-c3cnn(C)c3)nc(-c3ccc(C(F)(F)F)cc3)cc2c1=O (stereo not shown)", "%", 100),
    ("Cn1cc(-c2nc(-c3ccc(C(F)(F)F)cc3)cc3c(=O)n([C@H]4CCCC[C@H]4O)cnc23)cn1", "%", 99.1),
    ("O=c1c2cc(-c3ccc(C(F)(F)F)cc3)nc(-c3cccnc3)c2ncn1[C@@H]1CCCC[C@@H]1O", "%", 100),
    ("CC(CO)n1cnc2c(-c3cccnc3)nc(-c3ccc(Cl)cc3)cc2c1=O (stereo not shown)", "%", 99.1),
]
